Values compiled from ChEMBL document CHEMBL2218924.

system.under.test: Ribosomal protein S6 kinase alpha-3 (Homo sapiens) (UniProt P51812)
Sequence (P51812 whole entry): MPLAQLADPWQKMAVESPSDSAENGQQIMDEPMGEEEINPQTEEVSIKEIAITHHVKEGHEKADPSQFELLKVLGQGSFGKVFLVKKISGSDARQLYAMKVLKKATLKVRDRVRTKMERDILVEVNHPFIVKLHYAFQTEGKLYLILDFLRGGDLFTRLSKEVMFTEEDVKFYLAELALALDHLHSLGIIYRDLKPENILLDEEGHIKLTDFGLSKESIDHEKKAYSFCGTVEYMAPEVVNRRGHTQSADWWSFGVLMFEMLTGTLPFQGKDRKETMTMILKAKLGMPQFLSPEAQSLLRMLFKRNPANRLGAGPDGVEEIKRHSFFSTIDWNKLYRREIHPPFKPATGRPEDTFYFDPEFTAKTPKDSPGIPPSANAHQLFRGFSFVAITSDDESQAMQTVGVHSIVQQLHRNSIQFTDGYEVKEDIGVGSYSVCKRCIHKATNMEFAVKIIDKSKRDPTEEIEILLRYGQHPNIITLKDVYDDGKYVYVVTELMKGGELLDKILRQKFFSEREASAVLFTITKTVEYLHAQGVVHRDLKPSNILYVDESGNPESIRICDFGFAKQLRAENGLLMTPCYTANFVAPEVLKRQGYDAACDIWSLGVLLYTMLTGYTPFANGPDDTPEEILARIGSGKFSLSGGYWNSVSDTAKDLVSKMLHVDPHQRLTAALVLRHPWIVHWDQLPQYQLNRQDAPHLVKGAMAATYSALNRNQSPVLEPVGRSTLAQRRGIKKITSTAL
condition.notes: at 1 µM
The threshold is inclusive: residual activity of exactly 60% counts as label 1; values below receive label 0.

entry.smiles: CCOC(=O)c1c(C)[nH]c(/C=C2\C(=O)Nc3ccccc32)c1C
assigned.category: label 1

entry.smiles: Cn1sc(=O)n(Cc2ccccc2)c1=O
assigned.category: label 0

entry.smiles: O=c1cc(N2CCOCC2)oc2c1ccc1ccccc12
assigned.category: label 0

entry.smiles: Cc1cc(C)c(/C=C2\C(=O)Nc3ccccc32)[nH]1
assigned.category: label 0

entry.smiles: Cn1c2ccccc2c2c3c(c4c5ccccc5n(CCC#N)c4c21)CNC3=O
assigned.category: label 0

entry.smiles: Oc1cccc(-c2nc(N3CCOCC3)c3oc4ncccc4c3n2)c1
assigned.category: label 1

entry.smiles: NC(=O)c1cccc(-c2cc(Nc3ccc(OC(F)(F)F)cc3)ncn2)c1
assigned.category: label 0

entry.smiles: CC(C)c1nn(-c2c(Cl)cccc2Cl)c2nc(Cc3ccc(OCCO)cc3)[nH]c(=O)c12
assigned.category: label 0
